# System: Aerobactin synthetase IucA (Klebsiella pneumoniae, hypervirulent)
# experimental details: IucA enzyme inhibition, biochemical, LOPAC library, absorbance readout (AID 1346212);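 note: 100% = no compound wells and 0% = no enzyme wells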
# stated conditions: IucA enzyme assay, absorbance (OD) readout; active compounds read low;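 tested at 8 µM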
Please provide measured remaining activity for the entries that follow.
Answers are plain numbers, in %.

> print(dat)
                                   molecule  unit.of.measure  result
1  CC(=O)O[C@H]1Cc2ccccc2N(C(N)=O)c2ccccc21                %      85
2  CCc1c(C)[nH]c2c1C(=O)C(CN1CCOCC1)CC2 (stereo not given)                %     121

For every item below, please supply its remaining activity.
1. COc1cc(C(=O)OCCCN2CCCN(CCCOC(=O)c3cc(OC)c(OC)c(OC)c3)CC2)cc(OC)c1OC
2. CSC(=N)N
3. O=C1CCCN1CC#CCN1CCCC1
4. O=c1c(-c2ccc(O)cc2)coc2cc(O)cc(O)c12
5. O=C(O)C1(C(=O)O)CCC1.[NH2-].[NH2-].[Pt+2]

# output
1. 116
2. 123
3. 119
4. 121
5. 113

For every item below, please supply its remaining activity.
1. N=c1c[n+](N2CCOCC2)[n-]o1
2. CC1(C(=O)O)C2CCC(O2)C1(C)C(=O)O (stereo not given)
3. O=c1[nH]cnc2[nH]ncc12

# output
108
118
110
